TARGET UNDER TEST: human KOP receptor (Homo sapiens)
Construct: expressed in transfected cells; host or cells: CHO-hKOP cells (gift of Dr. Lawrence Toll, SRI International)
PROTOCOL TEXT: Competition binding assay, CHO-hKOP cell membranes, [3H]U69,593
CONDITION NOTES: Ki ratio DOP/KOP
Hi, to clarify the labels: 1 (yes) covers selectivity DOP/KOP from 300 upward, 0 (no) covers anything below 300.

Query: Does the molecule Cl.Oc1ccc(CCN(CCc2cccc(O)c2)CC2CC2)cc1 [Compound 17] have recorded selectivity DOP/KOP that is 300 or more?
Response: 1 (yes)

Query: Now this one: CC(C)CCN(CCc1cccc(O)c1)CCc1cccc(O)c1.Cl [Compound 13]
Response: 1 (yes)

Query: Now this one: Cl.Oc1cccc(CCN(CCc2ccccc2)C2CCC2)c1 [Compound 6]
Response: 1 (yes)

Query: Now this one: Cl.Oc1cccc(CCN(CCc2cccc(O)c2F)CC2CCC2)c1 [Compound 20]
Response: 1 (yes)

Query: Now this one: C=CCN(CCc1cccc(O)c1)CCc1cccc(O)c1.Cl [Compound 10]
Response: 0 (no)

Query: Now this one: Cl.Oc1ccc(CCN(CCc2cccc(O)c2)CC2CCC2)cc1 [Compound 14]
Response: 0 (no)

Query: Now this one: Cl.Oc1cccc(CCN(CCc2cccc(O)c2)CC2CCCCC2)c1 [Compound 11]
Response: 1 (yes)

Query: Now this one: Cl.Oc1cccc(CCN(CCc2ccccc2)Cc2ccccc2)c1 [Compound 5]
Response: 1 (yes)
